The reported measurements were obtained from patent US20230219979A1.

# System Tested: RET G810S kinase (Homo sapiens, UniProt P07949, G810S)
# Sequence (P07949 29-1114 G810S): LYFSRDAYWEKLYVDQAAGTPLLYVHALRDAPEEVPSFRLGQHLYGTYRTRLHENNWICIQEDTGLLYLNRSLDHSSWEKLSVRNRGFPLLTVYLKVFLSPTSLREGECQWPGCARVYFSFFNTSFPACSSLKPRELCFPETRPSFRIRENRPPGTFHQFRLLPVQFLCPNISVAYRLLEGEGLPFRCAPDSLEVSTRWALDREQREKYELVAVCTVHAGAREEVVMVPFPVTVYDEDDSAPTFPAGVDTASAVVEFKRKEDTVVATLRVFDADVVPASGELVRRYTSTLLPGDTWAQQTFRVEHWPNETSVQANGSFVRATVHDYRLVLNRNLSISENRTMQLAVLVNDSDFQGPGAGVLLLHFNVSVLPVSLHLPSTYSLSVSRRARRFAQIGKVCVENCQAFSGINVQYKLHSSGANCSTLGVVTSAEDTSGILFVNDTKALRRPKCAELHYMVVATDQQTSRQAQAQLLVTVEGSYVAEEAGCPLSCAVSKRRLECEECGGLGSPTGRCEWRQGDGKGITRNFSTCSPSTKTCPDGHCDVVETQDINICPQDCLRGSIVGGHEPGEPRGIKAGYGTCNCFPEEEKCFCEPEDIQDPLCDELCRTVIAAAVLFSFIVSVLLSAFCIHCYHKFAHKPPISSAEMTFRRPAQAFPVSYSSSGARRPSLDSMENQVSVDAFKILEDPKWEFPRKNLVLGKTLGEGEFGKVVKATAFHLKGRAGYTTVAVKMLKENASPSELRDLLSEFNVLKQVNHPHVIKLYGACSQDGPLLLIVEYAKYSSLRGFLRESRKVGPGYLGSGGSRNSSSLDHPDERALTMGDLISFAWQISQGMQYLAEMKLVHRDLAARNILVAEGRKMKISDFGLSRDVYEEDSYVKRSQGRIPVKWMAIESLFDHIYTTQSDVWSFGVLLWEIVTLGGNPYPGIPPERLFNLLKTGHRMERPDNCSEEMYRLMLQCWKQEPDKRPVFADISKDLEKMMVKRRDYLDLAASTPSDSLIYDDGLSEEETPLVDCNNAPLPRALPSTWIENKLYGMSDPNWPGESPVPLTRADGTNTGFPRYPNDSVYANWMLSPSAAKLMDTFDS
# Test Method Notes: HTRF method for testing the inhibitory activity against RET G810S
# Assay Setup: HTRF
Doc: threshold 10 nM (exclusive). Items with IC50 beneath it return t; others return f.

>>> class_assignment("COc1ccc(CN2C3CC2CN(c2ccc(-c4cc(NCC(F)(F)F)cn5ncc(C#N)c45)cn2)C3)cn1 [Compound 56]")
"t"
>>> class_assignment("COc1ccc(CN2C3CC2CN(c2ccc(-c4cc(Br)cn5ncc(C#N)c45)cn2)C3)cn1 [Compound 48]")
"f"
>>> class_assignment("CCCCNc1cc(-c2ccc(N3CC4CC(C3)N4Cc3ccc(OC)nc3)nc2)c2c(C#N)cnn2c1 [Compound 68]")
"t"
>>> class_assignment("COc1ccc(CN2C3CC2CN(c2ccc(-c4cc(NCC(C)(C)O)cn5ncc(C#N)c45)cn2)C3)cn1 [Compound 63]")
"f"
>>> class_assignment("CCCNc1cc(-c2ccc(N3CC4CC(C3)N4Cc3ccc(OC)nc3)nc2)c2c(C#N)cnn2c1 [Compound 57]")
"t"
>>> class_assignment("COc1ccc(CN2C3CC2CN(c2ccc(-c4cc(NCC(C)C)cn5ncc(C#N)c45)cn2)C3)cn1 [Compound 67]")
"f"
>>> class_assignment("COc1ccc(CN2C3CC2CN(c2ccc(-c4cc(NC(C)C)cn5ncc(C#N)c45)cn2)C3)cn1 [Compound 69]")
"f"
